Collected growth values appear next to each entry.
tested on: SF-295 CNS; test: NCI-60 one-dose screen, 48 h (100 = growth as untreated, 0 = no growth, -100 = all killed); settings: 10 µM unless noted
About 83,000 compounds went through this panel and 20% of them were active in at least one assay; those are over-represented in the sample as a whole. Calls of active or inactive are those of the source. How the source made its calls: active means growth percent below 10; inactive means the rest.
measured-endpoint: growth

| compound | experimental-result |
| --- | --- |
| COc1ccc(Nc2ncnc3sc4c(c23)CCN(Cc2ccccc2)C4)cc1 | 67.6% (inactive) |
| Fc1ccc(N2CC(Cn3c(C(F)(F)F)cc4c(Cl)ncnc43)C2)c(F)c1 | 87.8% (inactive) |
| O=C(O)CC1S/C(=N/N=C/c2nc3ccccc3s2)NC1=O (stereo not given) | 104% (inactive) |
| COc1ccc(-c2nnc3c(/C=C/c4ccc(Br)cc4)nc4ccccc4n23)cc1 | 87.4% (inactive) |
| CC1=C(C(=O)OCc2ccccc2)C(c2cccc3ccccc23)n2c(nc3ccccc32)N1 (stereo not given) | 10.5% (inactive) |

----------
test system: NCI-H460 lung; assay: NCI-60 one-dose screen, 48 h; conditions: 10 µM unless noted
The panel holds about 83,000 compounds, 20% with a hit somewhere; the sample as a whole holds those more often. Activity calls are given as the source filed them. Rule for the calls: active = growth percent below 10; inactive = the rest.
Classes used: active, inactive

| structure-smiles | assigned-label |
| --- | --- |
| O=C1Nc2ccccc2/C1=C/C(=O)c1cc2ccccc2oc1=O | inactive |
| Cn1cc(-c2cc(N)n3nc(-c4c[nH]c5ccccc45)cc3n2)c2cc(F)ccc21 | active |
| c1n[nH]cc1-c1nc2ccc3[nH]ncc3c2c2c1CC1(CCOCC1)CC2 | inactive |
| COc1ccccc1NC(=O)N/N=C/c1c[nH]c2ccccc12 | inactive |
| CCN1CCN(Cc2ccc(C(=O)Nc3cccc(Nc4ccc5c(OC)cccc5n4)c3)cc2C(F)(F)F)CC1 | active |
| Cc1ccc(S(=O)(=O)Nc2ccc(-c3ccc4c(c3)NC(=O)/C4=C\c3ccc[nH]3)cc2)cc1 | inactive |
| O=C(Nc1ccc(-c2ccc3c(c2)NC(=O)/C3=C\c2ccc[nH]2)cc1)Nc1cccc(Cl)c1 | active |
| CC(C)(C)OC(=O)N1CCC2(CC1)Oc1ccccc1[C@H]1CC(c3ccc(Br)cc3)=NN12 | inactive |
| CN1CCN(C(=O)Oc2cc3c(c4ccccc24)[C@H](CCl)CN3C(=O)c2cc3cc(OCCCN4CCC4)ccc3[nH]2)[C@@H]2CSSC[C@H]21 | active |

----------
system: NCI-H522 lung; assay: NCI-60 one-dose screen, 48 h; conditions: 10 µM unless noted
Compounds without any hit were thinned out: in the full panel of roughly 83,000, 20% have a hit. Active and inactive are the calls of the source. Rule for the calls: active = growth percent below 10; inactive = the rest.
Possible outcomes: active, inactive

| compound | assigned-label |
| --- | --- |
| CCOc1ccc2[nH]c(=O)c(C(c3nnnn3CC3CCCO3)N3CCN(Cc4ccccc4)CC3)cc2c1 (centres undefined) | inactive |
| CN1CCN(C(=O)Oc2cc3c(c4ccccc24)[C@H](CCl)CN3C(=O)c2cc3cc(OCCCN4CCC4)ccc3[nH]2)[C@@H]2CSSC[C@H]21 | active |
| Fc1ccccc1CNc1nc(SCCN2CCOCC2)nc2c1cnn2CC(Cl)c1ccc(Br)cc1 (centres undefined) | inactive |
| COc1cccc(NC(=O)c2ccc(NC(=O)CCl)s2)c1 | active |
| COc1c2c(c(Br)c3c1C(CCc1ccccc1)N(C)CC3)OCO2 (centres undefined) | inactive |
| CC(C)(C)C(=O)c1c2c(c3ccc4c5ccccc5ccc4n13)C(=O)c1ccccc1C2=O | inactive |
| Cc1nn(-c2ccccc2)c2ncn(CC(=O)N/N=C/c3ccccc3O)c(=O)c12 | inactive |
| CC(C)CN1C(=O)/C(=C\C(=O)c2cc3ccccc3oc2=O)c2ccccc21 | inactive |
| Cc1cnc2ccc(Oc3ccccc3-c3ccccc3)nn12 | inactive |

Provenance of the data: PubChem BioAssay (NCI)
